Source of measurements: patent US9688654B2

biological target: CHEK2 (CHK2) (Homo sapiens); construct: purchased Life Technologies Corporation; test: Kinase selectivity, Z'-LYTE platform; type: biochemical; details: 1 micromolar compound, read-out: percent inhibition CHEK2 (CHK2)
Sequence (O96017 whole entry): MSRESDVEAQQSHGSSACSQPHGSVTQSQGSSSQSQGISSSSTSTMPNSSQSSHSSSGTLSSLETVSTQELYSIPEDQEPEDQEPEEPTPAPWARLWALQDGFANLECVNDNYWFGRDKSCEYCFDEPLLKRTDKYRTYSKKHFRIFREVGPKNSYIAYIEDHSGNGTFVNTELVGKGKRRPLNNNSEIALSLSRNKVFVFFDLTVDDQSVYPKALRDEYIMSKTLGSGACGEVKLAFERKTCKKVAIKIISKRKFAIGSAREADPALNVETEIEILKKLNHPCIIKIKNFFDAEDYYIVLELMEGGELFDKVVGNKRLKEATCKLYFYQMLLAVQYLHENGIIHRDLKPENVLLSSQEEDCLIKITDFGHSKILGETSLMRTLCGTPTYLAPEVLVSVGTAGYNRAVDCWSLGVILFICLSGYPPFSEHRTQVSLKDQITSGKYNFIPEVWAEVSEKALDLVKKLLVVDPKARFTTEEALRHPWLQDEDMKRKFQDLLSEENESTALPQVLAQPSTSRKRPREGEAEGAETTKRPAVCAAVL
observable: inhibition at 1 µM (%)

Some entries whose results are on file:
[[record]]
compound_structure = "C[C@@H]1CN(c2cc(-c3n[nH]c4ccc(OC5(C)CC5)cc34)ccn2)C[C@H](C)O1"
val = 8

[[record]]
compound_structure = "C[C@@H]1CN(c2cc(-c3n[nH]c4ccc(OC5(C)CC5)cc34)ccn2)CCO1"
val = 2


[P] C[C@H]1CN(c2cc(-c3n[nH]c4ccc(OC5(C)CC5)cc34)ccn2)CCO1
[Q] CC1(Oc2ccc3[nH]nc(-c4ccnc(N5CCOCC5)c4)c3c2)CC1
### Prompt Higher inhibition at 1 µM between P and Q ? Lab note: record the label of whichever item you select.
### Response Q

###

Biological target: LRRK2 (G2019S mutation, GST-LRRK2 (amino acids 970-2527)) (Homo sapiens, UniProt Q5S007, G2019S)
Construct: GST-LRRK2 (amino acids 970-2527); GST (N); purchased Life Technologies Corporation
Sequence (Q5S007 970-2527 G2019S): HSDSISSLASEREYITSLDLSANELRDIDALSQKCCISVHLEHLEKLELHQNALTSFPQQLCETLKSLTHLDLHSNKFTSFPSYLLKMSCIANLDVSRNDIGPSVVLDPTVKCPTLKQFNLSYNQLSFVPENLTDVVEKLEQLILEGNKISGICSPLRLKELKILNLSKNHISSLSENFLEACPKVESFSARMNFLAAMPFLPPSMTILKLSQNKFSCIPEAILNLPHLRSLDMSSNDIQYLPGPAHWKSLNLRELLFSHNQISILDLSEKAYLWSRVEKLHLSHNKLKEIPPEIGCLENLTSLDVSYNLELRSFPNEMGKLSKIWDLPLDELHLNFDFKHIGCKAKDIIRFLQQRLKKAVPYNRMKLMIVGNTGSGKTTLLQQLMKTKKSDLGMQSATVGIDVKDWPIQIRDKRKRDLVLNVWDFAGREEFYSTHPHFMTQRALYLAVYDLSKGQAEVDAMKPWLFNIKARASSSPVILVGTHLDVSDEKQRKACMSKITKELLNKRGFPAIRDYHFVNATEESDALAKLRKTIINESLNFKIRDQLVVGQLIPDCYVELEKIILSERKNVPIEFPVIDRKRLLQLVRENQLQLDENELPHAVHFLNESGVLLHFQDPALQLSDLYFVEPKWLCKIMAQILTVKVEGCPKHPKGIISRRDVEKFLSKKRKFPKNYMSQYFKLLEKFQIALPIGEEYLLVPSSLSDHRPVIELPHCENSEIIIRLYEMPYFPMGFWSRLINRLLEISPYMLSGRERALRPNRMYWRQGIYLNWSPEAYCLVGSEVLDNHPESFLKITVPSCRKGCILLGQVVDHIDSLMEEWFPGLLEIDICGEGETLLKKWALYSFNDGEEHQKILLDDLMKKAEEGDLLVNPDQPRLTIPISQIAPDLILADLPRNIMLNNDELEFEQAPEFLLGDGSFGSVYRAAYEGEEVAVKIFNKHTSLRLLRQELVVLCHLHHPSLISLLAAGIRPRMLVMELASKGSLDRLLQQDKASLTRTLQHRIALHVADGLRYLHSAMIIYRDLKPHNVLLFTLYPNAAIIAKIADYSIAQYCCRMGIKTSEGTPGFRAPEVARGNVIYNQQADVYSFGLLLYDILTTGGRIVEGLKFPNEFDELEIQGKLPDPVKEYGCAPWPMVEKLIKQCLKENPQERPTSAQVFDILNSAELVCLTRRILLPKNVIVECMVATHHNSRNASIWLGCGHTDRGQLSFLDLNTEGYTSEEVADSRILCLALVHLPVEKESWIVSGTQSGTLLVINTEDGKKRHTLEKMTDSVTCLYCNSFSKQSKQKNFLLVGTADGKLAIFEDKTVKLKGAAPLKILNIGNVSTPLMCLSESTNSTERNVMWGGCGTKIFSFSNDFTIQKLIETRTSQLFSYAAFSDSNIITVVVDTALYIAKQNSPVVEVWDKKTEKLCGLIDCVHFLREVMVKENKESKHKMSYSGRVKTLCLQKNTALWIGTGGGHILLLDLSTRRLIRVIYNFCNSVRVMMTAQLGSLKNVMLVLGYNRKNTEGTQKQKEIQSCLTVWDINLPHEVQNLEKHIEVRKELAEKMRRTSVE
Assay: LRRK2 Km ATP LanthaScreen Assay
Type: biochemical
Conditions: mean IC50
Procedure: Unless otherwise noted, all LRRK2 IC50 data presented in tables refers to the LRRK2 Km ATP LanthaScreen™ Assay that is described in the Biological Assay section. […] • a) 400 nl of a 1:2.15 serial dilution of test compound (98 μM top assay concentration) is spotted via Labcyte Echo to certain wells in a 384 well black, untreated plate. […] Results are analysed using Assay Data Analyzer. […] Results are analysed using Assay Data Analyzer.
pIC50: −log10 of the molar value.
observable: pIC50

Some entries whose results are on file:
[[record]]
compound_structure = "FC1(F)CCN(c2cc(-c3n[nH]c4ccc(OC5CC5)cc34)ccn2)C1"
observable = "pIC50"
val = 7.72

[[record]]
compound_structure = "O=S1(=O)CCCN(c2cc(-c3n[nH]c4ccc(OC5CC5)cc34)ccn2)CC1"
observable = "pIC50"
val = 7.15

[[record]]
compound_structure = "CC1(Oc2ccc3[nH]nc(-c4ccnc(N5CC[C@@H](N)C5)c4)c3c2)CC1"
observable = "pIC50"
val = 8.70


[P] c1cnn(C2CCN(c3cc(-c4n[nH]c5ccc(OC6CC6)cc45)ccn3)CC2)c1
[Q] FC1(F)CCN(c2cc(-c3n[nH]c4ccc(OC5CC5)cc34)ccn2)CC1
[R] C[C@@H]1CN(c2cc(-c3n[nH]c4ccc(OC5(C)CC5)cc34)ccn2)CCO1
### Prompt Place the items in sequence of falling pIC50. Write out the labels following the order that was asked for.
### Response R, P, Q
(R: 9.22, P: 7.80, Q: 7.52)

[I] F[C@H]1CN(c2cc(-c3n[nH]c4ccc(OC5CC5)cc34)ccn2)C[C@@H]1F
[II] FC1(F)CN(c2cc(-c3n[nH]c4ccc(OC5CC5)cc34)ccn2)C1
[III] c1cc(-c2n[nH]c3ccc(OC4CC4)cc23)cc(N2CCN(C3CC3)CC2)n1
### Prompt Endpoint returns the given compounds ordered by ascending pIC50. Write out the labels following the order that was asked for.
### Response II, I, III
(II: 7.40, I: 7.72, III: 7.92)

[1] c1cc(-c2n[nH]c3ccc(OC4CC4)cc23)cc(N2CCOCC2)n1
[2] CCc1nnc2n1CCN(c1cc(-c3n[nH]c4ccc(OC5CC5)cc34)ccn1)C2
### Prompt Higher pIC50 between 1 and 2 ? Lab note: record the label of whichever item you select.
### Response 2
(2: 7.92, 1: 7.40)

###

biological target: LRRK2 (G2019S mutation, GST-LRRK2 (amino acids 970-2527)) (Homo sapiens, UniProt Q5S007, G2019S); construct: GST-LRRK2 (amino acids 970-2527); GST (N); purchased Life Technologies Corporation; assay: LRRK2 Km ATP LanthaScreen Assay; assay type: biochemical; details: mean IC50
pIC50: −log10 of the molar value.
observable: pIC50

[A] c1cc(-c2n[nH]c3ccc(OC4CC4)cc23)cc(N2CCc3oc(C4CC4)nc3C2)n1
[B] c1cc(-c2n[nH]c3ccc(OC4CC4)cc23)cc(N2CCC(n3cncn3)CC2)n1
[C] c1cc(-c2n[nH]c3ccc(OC4CC4)cc23)cc(N2CCC2)n1
### Prompt Quick favor: sort the molecules up above by pIC50, largest first. Write out the labels following the order that was asked for.
### Response B, C, A
